# measurement_target: Progesterone receptor (PR) (Homo sapiens, UniProt P06401)
# Construct: endogenous in cells
# assay_text: In vitro functional assay for progesterone receptor (PR) antagonists: inhibition of progesterone-induced alkaline phosphatase expression in T47D cells
# run_parameters: antagonist format; T47D human mammary carcinoma cells; alkaline phosphatase inhibition vs 5 nM progesterone
# Description: 1.0 In Vitro Functional Assay for Progesterone Receptor (PR) Antagonists, Agonists and Modulators The assay for PR antagonism takes advantage of the extensively reported modulation of alkaline phosphatase (AP) expression in human breast T47D mammary carcinoma cells {Beck, et al., D. P. (1993). The progesterone antagonist RU486 acquires agonist activity upon stimulation of cAMP signalling pathways. Proc Natl Acad Sci U S A 90, 4441-4445; Fensome, et al. (2002). […]
measured_quantity: IC50 (nM)
Answers are plain numbers, in nM.

>>> number("Cc1cc(Oc2c(C3CC3)nn(C3CS(=O)(=O)C3)c2C2CC2)cc(C)c1C#N")
14.7
>>> number("Cc1cc(Oc2c(C3CC3)nn(C3CCOC3)c2C2CC2)cc(C)c1C#N (centres unmarked)")
67.4
>>> number("Cc1cc(Oc2c(C)nn(C3CS(=O)(=O)C3)c2C2CC2)cc(C)c1C#N")
50.4
>>> number("Cc1cc(Oc2c(C3CC3)nn(C3CCS(=O)(=O)C3)c2C2CC2)cc(C)c1C#N (single isomer, unassigned) [Example 8]")
33.8
>>> number("Cc1cc(Oc2c(C3CC3)nn(C3CCS(=O)(=O)CC3)c2C2CC2)cc(C)c1C#N")
91.3

Would you mind giving IC50 for every molecule in the list below?
1. Cc1cc(Oc2c(C)nn(C3CCS(=O)(=O)C3)c2C2CC2)cc(C)c1C#N (racemic)
2. Cc1cc(Oc2c(C3CC3)nn(C3CS(=O)(=O)C3)c2Cl)cc(C)c1C#N
3. Cc1cc(Oc2c(C3CC3)nn(C3CCOCC3)c2C2CC2)cc(C)c1C#N

Response:
1. 133
2. 22
3. 56.3

----------
Assign pIC50 to each entry below.
# measurement_target: Progesterone receptor (PR) (Homo sapiens)
# Construct: endogenous in cells
# Sequence (P06401 1-933): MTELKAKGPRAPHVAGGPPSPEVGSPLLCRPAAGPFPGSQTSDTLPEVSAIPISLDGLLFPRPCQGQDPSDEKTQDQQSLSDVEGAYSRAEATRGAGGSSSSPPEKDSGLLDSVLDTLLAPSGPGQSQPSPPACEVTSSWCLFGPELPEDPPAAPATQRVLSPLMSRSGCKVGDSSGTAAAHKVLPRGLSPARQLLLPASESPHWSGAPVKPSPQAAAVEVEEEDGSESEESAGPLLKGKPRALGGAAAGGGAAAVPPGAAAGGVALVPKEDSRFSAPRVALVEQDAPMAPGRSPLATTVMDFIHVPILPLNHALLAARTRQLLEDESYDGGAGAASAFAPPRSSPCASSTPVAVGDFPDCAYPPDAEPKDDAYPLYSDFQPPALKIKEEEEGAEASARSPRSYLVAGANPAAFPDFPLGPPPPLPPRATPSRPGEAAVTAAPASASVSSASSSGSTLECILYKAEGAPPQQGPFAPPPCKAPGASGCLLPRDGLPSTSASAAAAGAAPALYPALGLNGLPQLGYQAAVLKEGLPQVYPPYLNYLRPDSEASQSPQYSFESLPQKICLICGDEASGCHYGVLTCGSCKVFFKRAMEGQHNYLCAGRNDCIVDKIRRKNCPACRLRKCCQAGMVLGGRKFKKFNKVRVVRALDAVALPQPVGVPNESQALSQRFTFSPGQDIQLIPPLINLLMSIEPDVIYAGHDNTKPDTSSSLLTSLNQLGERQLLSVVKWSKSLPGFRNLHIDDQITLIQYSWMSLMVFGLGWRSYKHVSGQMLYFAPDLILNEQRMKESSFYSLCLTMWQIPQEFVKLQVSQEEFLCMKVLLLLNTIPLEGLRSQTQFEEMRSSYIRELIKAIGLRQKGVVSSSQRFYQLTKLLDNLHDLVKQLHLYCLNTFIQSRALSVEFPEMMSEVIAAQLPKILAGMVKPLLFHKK
# assay_text: In vitro functional assay for progesterone receptor (PR) antagonists: inhibition of progesterone-induced alkaline phosphatase expression in T47D cells
# run_parameters: antagonist format; T47D human mammary carcinoma cells; alkaline phosphatase inhibition vs 5 nM progesterone
Answers are plain numbers, as −log10 of the molar value.

Observe how each entry below is paired with its result.
>>> number("Cc1cc(Oc2c(C3CCC3)nn(C3CCS(=O)(=O)C3)c2C)cc(C)c1C#N (racemic)")
6.69
>>> number("Cc1cc(Oc2c(C3CC3)nn(C3CCS(=O)(=O)C3)c2C2CC2)cc(C)c1C#N (racemic) [Example 7]")
7.86
>>> number("Cc1cc(Oc2c(C)nn(C3CCS(=O)(=O)C3)c2C2CCC2)cc(C)c1C#N (racemic)")
5.83

Would you mind giving pIC50 for every molecule in the list below?
1. Cc1cc(Oc2c(C3CC3)nn(C3CCS(=O)(=O)C3)c2C2CC2)cc(C)c1C#N (single isomer, unassigned) [Example 9]
2. Cc1cc(Oc2c(Cl)nn(C3CS(=O)(=O)C3)c2C2CC2)cc(C)c1C#N
3. Cc1cc(Oc2c(C3CC3)nn(C3COC3)c2C2CC2)cc(C)c1C#N
4. Cc1cc(Oc2c(C3CC3)nn(C3CS(=O)(=O)C3)c2C)cc(C)c1C#N

Response:
[7.59, 6.97, 7.08, 7.56]
